molecular target: NS2B(H)-NS3pro (DENV-2 NS2B-NS3 protease) (Dengue virus 2 Thailand/NGS-C/1944, UniProt P14340); assay: biochemical; conditions: read-out: % inhibition
Sequence (P14340 1394-1433 limits assumed): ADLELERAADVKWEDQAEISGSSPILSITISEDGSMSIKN
Sequence (P14340 1476-1660 limits assumed): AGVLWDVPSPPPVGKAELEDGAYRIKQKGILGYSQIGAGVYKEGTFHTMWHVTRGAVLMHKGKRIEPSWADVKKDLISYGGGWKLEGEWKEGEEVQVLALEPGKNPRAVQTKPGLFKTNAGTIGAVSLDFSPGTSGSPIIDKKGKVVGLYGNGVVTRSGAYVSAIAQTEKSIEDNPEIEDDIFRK
Property name: inhibition at 50 µM (%)
Write the number in % without appending the unit.

Before answering, review these 6 worked examples.
Compound | Unit tag | inhibition at 50 µM
COc1cc(C(=O)N[C@H](C(=O)Nc2cccc(C(N)=O)c2)c2ccc(OCc3ccccc3)cc2)ccc1Oc1ccccc1 [compound 8, 8] | % | 99
NC(=O)c1cccc(NC(=O)[C@@H](NC(=O)c2ccc(-c3ccccc3)o2)c2ccc(OCc3ccccc3)cc2)c1 [compound 5, 5] | % | 100
CC(C(=O)NCC1(CC(=O)N[C@H](C(=O)Nc2cccc(C(N)=O)c2)c2ccc(OCc3ccccc3)cc2)CCCCC1)c1ccc2c(c1)[nH]c1ccc(Cl)cc12 (stereo partly shown) [compound 6, 6] | % | 99
NC(=O)c1cccc(NC(=O)[C@@H](NC(=O)Cc2ccccc2Nc2c(Cl)cccc2Cl)c2ccc(OCc3ccccc3)cc2)c1 [compound 9, 9] | % | 99
NC(=O)c1cccc(NC(=O)[C@@H](NC(=O)c2ccc(Nc3ccccc3)cc2)c2ccc(OCc3ccccc3)cc2)c1 [compound 7] | % | 99
NC(=O)c1cccc(NC(=O)[C@@H](NC(=O)Cc2ccc(Oc3ccccc3)cc2)c2ccc(OCc3ccccc3)cc2)c1 [compound 11, 11] | % | 99

Now look at this one.
Problem: Request the reported inhibition at 50 µM associated with CC(C(=O)N[C@H](C(=O)Nc1cccc(C(N)=O)c1)c1ccc(OCc2ccccc2)cc1)c1cccc(Oc2ccccc2)c1 (stereo partly shown) [compound 4, 4]
Solution: 100

====

experiment: in vitro; design: species or system DENV2proHeLa (HeLa); settings: human, denv2prohela cells
Property name: CC50

Here is how some molecules turned out for CC50.
Molecule | CC50
CCCCC(CC)C(=O)N[C@H](C(=O)Nc1cccc(C(N)=O)c1)c1ccc(OCc2ccccc2)cc1 (stereo partly shown) | > 50 µM
CC(CC(=O)N[C@H](C(=O)Nc1cccc(C(N)=O)c1)c1ccc(OCc2ccccc2)cc1)CC(C)(C)C (stereo partly shown) | ≥ 100 µM

Problem: Field request: CC50 | item: NC(=O)c1cccc(NC(=O)[C@@H](NC(=O)C2COc3ccccc3C2)c2ccc(OCc3ccccc3)cc2)c1 (stereo partly shown)
Solution: > 50 µM

Problem: Quick check: CC50 of NC(=O)c1cccc(NC(=O)[C@@H](NC(=O)c2cc(O)n(-c3ccccc3)n2)c2ccc(OCc3ccccc3)cc2)c1 ?
Solution: > 50 µM

====

biological target: DENV2proHeLa NS2B-NS3 protease (Dengue virus 2 Thailand/16681/84); assay: cell-based; set-up: species or system DENV2proHeLa (HeLa)
Sequence (P29990 1476-2093 limits assumed): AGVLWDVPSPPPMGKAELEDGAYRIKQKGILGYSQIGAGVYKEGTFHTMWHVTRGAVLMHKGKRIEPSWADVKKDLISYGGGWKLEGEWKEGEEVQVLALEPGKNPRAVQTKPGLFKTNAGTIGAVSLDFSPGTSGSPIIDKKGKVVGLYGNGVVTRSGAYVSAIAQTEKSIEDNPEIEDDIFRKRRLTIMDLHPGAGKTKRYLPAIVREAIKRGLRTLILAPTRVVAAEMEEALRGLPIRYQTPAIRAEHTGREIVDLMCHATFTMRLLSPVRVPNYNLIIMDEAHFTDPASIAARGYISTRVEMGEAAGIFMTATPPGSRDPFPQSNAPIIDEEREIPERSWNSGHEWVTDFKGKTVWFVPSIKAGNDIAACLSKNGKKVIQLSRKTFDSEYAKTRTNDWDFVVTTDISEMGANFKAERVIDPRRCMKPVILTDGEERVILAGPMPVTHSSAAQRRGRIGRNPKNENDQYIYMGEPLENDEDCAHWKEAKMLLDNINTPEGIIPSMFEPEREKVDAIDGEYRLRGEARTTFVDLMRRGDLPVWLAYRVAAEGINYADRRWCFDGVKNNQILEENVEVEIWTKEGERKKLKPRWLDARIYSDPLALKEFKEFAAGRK
Sequence (P29990 1346-1475 partner limits assumed): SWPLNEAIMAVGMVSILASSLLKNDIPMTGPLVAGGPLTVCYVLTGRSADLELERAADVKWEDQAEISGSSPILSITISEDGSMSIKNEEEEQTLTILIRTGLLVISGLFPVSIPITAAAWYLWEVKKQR
pEC50 values, listed per item
Please note pEC50 is a logarithmic value: minus log10 of concentration in mol/L. Answer with that number alone.

Molecule | pEC50
CC(C(=O)N[C@H](C(=O)Nc1cccc(C(N)=O)c1)c1ccc(OCc2ccccc2)cc1)c1ccccc1 (stereo partly drawn) | 5.10
NC(=O)c1cccc(NC(=O)[C@@H](NC(=O)OCc2ccccc2)c2ccc(OCc3ccccc3)cc2)c1 | 5.30

Problem: What measured pEC50 goes with CC(C)CCC(=O)N1CCC(C(=O)N[C@H](C(=O)Nc2cccc(C(N)=O)c2)c2ccc(OCc3ccccc3)cc2)CC1 ?
Solution: 4.96
